// provenance: patent US5157032A

Task for the reader: assign each of the following compounds its reported EC50.
Target system: pBR322 DNA
Assay summary: Unwinding of supercoiled pBR322 DNA (topoisomerase I assay)
Run conditions: read-out: Unwinding concentration; needed to unwind 11 of 22 supercoils; [DNA] 47 μM for phi complexes, 31.5 μM others; 60 min
Answer format: numeric, µM implied, no suffix.

Recorded EC50 (compound [Ru+2].c1ccc(-c2ccccn2)nc1.c1ccc(-c2ccccn2)nc1.c1cnc2c(c1)ccc1cccnc12 ): 69

Recorded EC50 (compound [Ru+2].c1ccc(-c2ccnc3c2ccc2c(-c4ccccc4)ccnc23)cc1.c1cnc2c(c1)ccc1cccnc12.c1cnc2c(c1)ccc1cccnc12 ): 9

Recorded EC50 (compound [Ru].c1cnc2c(c1)ccc1cccnc12.c1cnc2c(c1)ccc1cccnc12.c1cnc2c(c1)ccc1cccnc12 [Ru(phen)3^2+, reference compound] ): 9

----------
Tested on: pBR322 DNA
Assay summary: Unwinding of supercoiled pBR322 DNA (topoisomerase I assay)
Run conditions: per molecule of bound complex
Result type: Unwinding Angle
Just so you know, I need the unit written after the number.

Recorded Unwinding Angle (compound [Ru].c1cnc2c(c1)ccc1cccnc12.c1cnc2c(c1)ccc1cccnc12.c1cnc2c(c1)ccc1cccnc12 [Ru(phen)3^2+, reference compound] ): 19 degrees

Recorded Unwinding Angle (compound N=C1C(=N)c2ccccc2-c2ccccc21.[Ru+2].c1cnc2c(c1)ccc1cccnc12.c1cnc2c(c1)ccc1cccnc12 [Ru(phen)2 (phi)^2+] ): 26 degrees

Recorded Unwinding Angle (compound [Ru+2].c1ccc(-c2ccccn2)nc1.c1cnc2c(c1)ccc1cccnc12.c1cnc2c(c1)ccc1cccnc12 [Ru(phen)2 (bpy)^2+] ): 18 degrees

Recorded Unwinding Angle (compound N=C1C(=N)c2ccccc2-c2ccccc21.[Ru+2].c1ccc(-c2ccccn2)nc1.c1ccc(-c2ccccn2)nc1 [Ru(bpy)2 (phi)^2+] ): 17 degrees
